# credit: ChEMBL document CHEMBL1961873

- testedSystem: Macrophage colony-stimulating factor 1 receptor (Homo sapiens);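 further: value reported is the mean inhibition of FMS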
- conditionSummary: at 0.1 µM
measuredParameter: inhibition (%)
Answer in %, number only, no unit symbol.

compound: Fc1ccc(-c2nc3n(c2-c2ccncc2)CCS3)cc1
measuredParameter: inhibition
resultNumber: 0.95

// lookup inhibition for FC(F)(F)c1cccc(Nc2nccc(-c3cnn4nc(-c5ccccc5)ccc34)n2)c1
-2.73

// lookup inhibition for O=C(NCC1CC1)c1ccc(-c2cccc(C(=O)NC3CC3)c2)cc1
1.67

// lookup inhibition for Cc1ccc(NC(=O)c2ccoc2)cc1-c1ccc(C(=O)NCC2CC2)cc1
-2.68

// lookup inhibition for C[C@@H](Oc1cc(-n2cnc3ccc(OCC4CCN(C)CC4)cc32)sc1C(N)=O)c1ccccc1Cl
4.53

// lookup inhibition for Fc1ccc(-c2ncn(C3CCNCC3)c2-c2ccnc(Oc3ccc4c(c3)OCO4)n2)cc1
2.5

====

# inhibition per record follows
- testedSystem: Vascular endothelial growth factor receptor 3 (Homo sapiens) (UniProt P35916);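 further: mean FLT4 inhibition, averaged across replicates, from the GSK PKIS kinase inhibitor screen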
- Sequence (P35916 whole entry): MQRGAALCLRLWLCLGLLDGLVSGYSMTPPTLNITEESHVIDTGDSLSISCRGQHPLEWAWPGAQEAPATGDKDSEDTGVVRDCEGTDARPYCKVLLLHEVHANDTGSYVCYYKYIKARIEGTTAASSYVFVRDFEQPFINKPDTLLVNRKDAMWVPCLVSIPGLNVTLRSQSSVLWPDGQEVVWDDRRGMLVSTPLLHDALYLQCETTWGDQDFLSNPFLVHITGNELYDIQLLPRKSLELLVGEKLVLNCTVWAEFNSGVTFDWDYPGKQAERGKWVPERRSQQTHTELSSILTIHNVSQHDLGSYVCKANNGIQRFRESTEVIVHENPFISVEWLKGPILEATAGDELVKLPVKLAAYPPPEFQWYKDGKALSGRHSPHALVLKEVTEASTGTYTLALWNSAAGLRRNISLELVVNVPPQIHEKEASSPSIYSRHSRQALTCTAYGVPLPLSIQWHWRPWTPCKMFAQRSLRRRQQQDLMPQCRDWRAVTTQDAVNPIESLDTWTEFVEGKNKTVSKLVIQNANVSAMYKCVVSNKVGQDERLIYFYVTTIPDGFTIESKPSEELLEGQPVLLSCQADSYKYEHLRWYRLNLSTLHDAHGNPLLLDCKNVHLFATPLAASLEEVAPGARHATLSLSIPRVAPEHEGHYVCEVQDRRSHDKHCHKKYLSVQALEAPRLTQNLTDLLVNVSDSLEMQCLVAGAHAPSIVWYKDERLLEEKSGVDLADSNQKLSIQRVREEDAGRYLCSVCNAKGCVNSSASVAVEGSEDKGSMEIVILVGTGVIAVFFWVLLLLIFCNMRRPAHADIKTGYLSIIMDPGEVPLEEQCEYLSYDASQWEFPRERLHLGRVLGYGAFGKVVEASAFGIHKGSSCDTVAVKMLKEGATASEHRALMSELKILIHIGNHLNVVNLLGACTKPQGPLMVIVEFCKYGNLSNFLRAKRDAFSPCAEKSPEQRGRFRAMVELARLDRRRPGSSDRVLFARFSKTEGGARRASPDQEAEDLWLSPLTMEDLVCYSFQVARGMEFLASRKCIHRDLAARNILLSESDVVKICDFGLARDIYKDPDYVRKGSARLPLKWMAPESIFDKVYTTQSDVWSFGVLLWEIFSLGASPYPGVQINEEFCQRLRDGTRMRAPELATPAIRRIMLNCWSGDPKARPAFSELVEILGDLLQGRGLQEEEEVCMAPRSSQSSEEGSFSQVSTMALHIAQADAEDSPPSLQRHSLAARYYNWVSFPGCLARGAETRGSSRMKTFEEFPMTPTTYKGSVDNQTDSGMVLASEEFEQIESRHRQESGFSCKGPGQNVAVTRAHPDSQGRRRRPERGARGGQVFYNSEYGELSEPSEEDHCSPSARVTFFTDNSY
- conditionSummary: at 1 µM
Answer in %, number only, no unit symbol.

molecule: Cc1ccc(NC(=O)c2ccoc2)cc1-c1ccc(C(=O)NCC2CC2)cc1
displayUnit: %
inhibition: 6.22

molecule: NC(=O)c1cc(-c2ccncc2)cc(-c2ccccc2)c1N
displayUnit: %
inhibition: 6.17

molecule: CCC(=O)Nc1ccc(C)c(-c2ccc(C(=O)NCC3CC3)cc2)c1
displayUnit: %
inhibition: -1.74

molecule: NC(=O)c1ccc(Oc2nccc(-c3c(-c4ccc(F)cc4)ncn3C3CCNCC3)n2)cc1
displayUnit: %
inhibition: 4.57

molecule: NS(=O)(=O)c1ccc(N/N=C2\C(=O)Nc3ccc(-c4cnco4)cc32)cc1
displayUnit: %
inhibition: 25.8

Continue with the molecule presented below.
// lookup inhibition for COc1cccc(/C=N/Nc2ncnc3c2cnn3-c2cccc(OC)c2)c1
-0.55

====

- testedSystem: Vascular endothelial growth factor receptor 1 (Homo sapiens);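 further: values are mean percent inhibition of FLT1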
- conditionSummary: at 0.1 µM
measuredParameter: inhibition (%)
Answer in %, number only, no unit symbol.

compound: COc1cc2ncn(-c3cc(OCc4cccs4)c(C(N)=O)s3)c2cc1OC
measuredParameter: inhibition
resultNumber: 2.16

What inhibition appears in the records for this compound with Vascular endothelial growth factor receptor 1 (Homo sapiens)? Fc1ccc(-c2c(-c3ccncc3)nc3n2CCS3)cc1
0.25

What inhibition appears in the records for this compound with Vascular endothelial growth factor receptor 1 (Homo sapiens)? COc1cc(Nc2ncc3c(C)nc(-c4cccc(Oc5ccccc5)c4)n3n2)cc(OC)c1OC
0.68

What inhibition appears in the records for this compound with Vascular endothelial growth factor receptor 1 (Homo sapiens)? O=C1Nc2ccc(I)cc2C1=Cc1cc(Br)c(O)c(Br)c1
-0.02

====

# inhibition per record follows
- testedSystem: Leukocyte tyrosine kinase receptor (Homo sapiens);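 further: each value is the mean inhibition of LTK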
- conditionSummary: at 1 µM
Answer in %, number only, no unit symbol.

compound: COC(=O)Nc1nc2ccc(Sc3ccc(NC(=O)Nc4cc(C(F)(F)F)ccc4F)cc3)cc2[nH]1
measuredParameter: inhibition
resultNumber: -2.11

// lookup inhibition for CCS(=O)(=O)c1ccc(OC)c(Nc2ncc(-c3cccc(-c4ccccc4F)c3)o2)c1
4.54

// lookup inhibition for FC(F)(F)c1cccc(Nc2nccc(-c3cnn4nc(-c5ccccc5)ccc34)n2)c1
0.52

// lookup inhibition for CCN(CC)Cc1ccc(Nc2nccc(-c3cnn4ncccc34)n2)cc1
9.98

// lookup inhibition for Cc1ccc(C(=O)NC2CCC2)cc1-c1ccc(C(=O)NCC2CC2)cc1
2.04

// lookup inhibition for CS(=O)(=O)CCNCc1ccc(-c2ccc3ncnc(Nc4ccc(OCc5ccccc5)c(Br)c4)c3c2)o1
4.86
